Listing of recorded IC50 by entry.
biological target: Human PKK (Homo sapiens (Human))
Sequence (P03952 391-638): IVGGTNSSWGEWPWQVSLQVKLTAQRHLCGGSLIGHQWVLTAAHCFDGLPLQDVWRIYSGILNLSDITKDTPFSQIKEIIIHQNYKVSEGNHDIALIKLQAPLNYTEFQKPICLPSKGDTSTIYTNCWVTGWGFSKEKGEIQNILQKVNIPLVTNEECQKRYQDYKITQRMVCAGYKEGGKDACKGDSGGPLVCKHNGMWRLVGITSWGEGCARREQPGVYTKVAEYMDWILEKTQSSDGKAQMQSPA
Sequence (P03952 20-390 partner): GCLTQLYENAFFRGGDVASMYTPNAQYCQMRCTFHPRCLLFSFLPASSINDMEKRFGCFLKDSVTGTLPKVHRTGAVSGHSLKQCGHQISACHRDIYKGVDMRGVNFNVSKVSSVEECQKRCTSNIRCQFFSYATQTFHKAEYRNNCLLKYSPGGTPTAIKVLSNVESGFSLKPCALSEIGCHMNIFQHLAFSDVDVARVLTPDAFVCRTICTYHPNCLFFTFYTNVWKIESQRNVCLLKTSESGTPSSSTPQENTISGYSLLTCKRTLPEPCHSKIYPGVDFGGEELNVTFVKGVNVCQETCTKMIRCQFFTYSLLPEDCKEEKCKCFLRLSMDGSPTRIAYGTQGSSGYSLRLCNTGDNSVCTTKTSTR
Only the number, expressed in nM, is required.

As a guide, the following entries are already answered.
[[record]]
compound = "Cc1nc(N2CC3CC3C2)ccc1Cn1cc(C(=O)NCc2cc(Cl)ccc2-n2cnnn2)c2cncnc21 (centres unmarked) [Example 15]"
measure_name = "IC50"
meas_value = 2

[[record]]
compound = "COC[C@H]1[C@H]2CN(c3ccc(Cn4cc(C(=O)NCc5cc(Cl)ccc5-n5cnnn5)cn4)c(C)n3)C[C@@H]12 [Example 55]"
measure_name = "IC50"
meas_value = 3

[[record]]
compound = "Cc1nc(N2CC3CC3C2)ccc1Cn1cc(C(=O)NCc2cc(Cl)c(F)cc2-n2cnnn2)cn1 (centres unmarked) [Example 2]"
measure_name = "IC50"
meas_value = 5

[[record]]
compound = "O=C(NCc1cc(Cl)ccc1-n1cnnn1)c1cn(Cc2ccc(N3CC4CC4C3)nc2)nc1C(F)F (centres unmarked) [Example 44]"
measure_name = "IC50"
meas_value = 1

[[record]]
compound = "Cc1nc(N2CCCC3(CC3)C2)ccc1Cn1cc(C(=O)NCc2cc(Cl)ccc2-n2cnnn2)cn1 [Example 72]"
measure_name = "IC50"
meas_value = 74

[[record]]
compound = "Cc1nc(N2CC3CC3C2)ccc1Cn1cc(C(=O)NCc2cc(Cl)ccc2-n2cnnn2)c(Br)n1 (centres unmarked) [Example 49]"
measure_name = "IC50"
meas_value = 1


Please give the measured IC50 for this compound: COC1C2CC1CN(c1ccc(Cn3cc(C(=O)NCc4cc(Cl)ccc4-n4cnnn4)cn3)c(C)n1)C2 (centres unmarked) [Example 84]
4

Cc1nc(N2CC3(CC3)C2)ccc1Cn1cc(C(=O)NCc2c(-n3cnnn3)ccc(Cl)c2F)c(C)n1 [Example 28] , same question.
14
